Exercise: state measured melting point for each of the compounds provided.

Please report the recorded melting point for "Cc1cc(SCc2ccc(OCc3ccc(Cl)cc3)cc2)ccc1OCC(=O)O" .
164 °C

Which measured melting point value corresponds to "N#Cc1ccc(-c2c[nH]nc2C(F)(F)F)cc1SCC(F)(F)F" ?
65 to 67 °C

Given "CCc1nc(-c2ccnnc2)no1" , state its recorded melting point.
73 to 74 °C

Would you kindly share the measured melting point for Cc1c(NC(=O)C(CS)Cc2ccccc2)cccc1C(=O)O (stereo not given) ?
179 to 181 °C

melting point for "CCc1ccc(Cn2c(C)nc3ccc(C(=O)OC)nc32)c(Cl)c1" ?
172 to 173 °C

Could you share which melting point value was measured for "O=C(Nc1ccc(Cl)c(-c2ccnc3c(C(=O)c4cccs4)cnn23)c1)c1ccccc1" ?
194 to 195 °C

Return reported melting point; argument: CN(C)Cc1ccc(C=CC(=O)N2CCc3c([nH]c4ccccc34)C2c2ccc3c(c2)CCO3)cn1 (stereo not given)
163 °C

Please look up its melting point: "CN(CCNc1ncc(Cc2ccc(Cl)cc2)c(=O)[nH]1)c1ccccn1"
172 to 174 °C

Sample "O=C(N1CCCC1)N1CCN(Cc2ccc3c(c2)-c2[nH]nc(-c4ccsc4)c2C3)CC1" — what was its melting point?
214 to 216 °C

# input compound: "CCOCc1nc2cnc3cc(Br)ccc3c2n1CCN1CCN(C(=O)OC(C)(C)C)CC1" ; wanted: its melting point
140 to 143 °C

For the compound shown here, CCCC1=C(C(=O)OCC)C(c2cc(Cl)ccc2Cl)c2c[nH]nc2N1 (stereo not given) , give the reported melting point.
162 °C

Find the recorded melting point belonging to "CC(=O)C(=O)NC(=O)[C@@H](N)Cc1ccccc1" and report it.
138 to 140 °C

Using the record for "O=C(OCc1ccccc1)c1cc(Cl)c(Cl)c(Cl)n1" , report its melting point.
125 to 126 °C

Which melting point reading was recorded for the compound "O=C1Cc2c(cccc2C(=O)O)Sc2ccccc21" ?
230 to 232 °C

Give the measured melting point of "O[C@H]1CC[C@H](n2cnc(-c3ccc(F)cc3)c2-c2ccnc(Nc3ccccc3)n2)CC1" .
204 to 206 °C

Any idea what melting point was measured for "Nc1ccc2c(c1)C(=O)C1(CC1)S2" ?
148 to 150 °C

# melting point lookup, item CNC(=O)ON=C1SCOC1C (stereo not given)
70 to 71.5 °C

Param item = COC(=O)C1CCC2C3CCC4CC(C)(O)CCC4(C)C3C(=O)CC12C (stereo not given) ; retrieve measured melting point.
150 °C

Request the reported melting point associated with "CCOCc1nc2c(N)nc3ccccc3c2n1CC(C)(C)CS(=O)(=O)NCc1ccc(OC)cc1"
203 to 205 °C

Returns the measured melting point for the input compound. Input: COc1ccc(-c2cc(-c3ccc(-c4c(Cc5ccccc5)sc5ccccc45)cc3)ccc2OC(Cc2ccccc2)C(=O)O)cc1 (stereo not given)
82 to 84 °C
